System Tested: human Y2 receptor (Homo sapiens)
Construct: expressed in transfected cells; membrane fraction
Sequence (P49146 1-381): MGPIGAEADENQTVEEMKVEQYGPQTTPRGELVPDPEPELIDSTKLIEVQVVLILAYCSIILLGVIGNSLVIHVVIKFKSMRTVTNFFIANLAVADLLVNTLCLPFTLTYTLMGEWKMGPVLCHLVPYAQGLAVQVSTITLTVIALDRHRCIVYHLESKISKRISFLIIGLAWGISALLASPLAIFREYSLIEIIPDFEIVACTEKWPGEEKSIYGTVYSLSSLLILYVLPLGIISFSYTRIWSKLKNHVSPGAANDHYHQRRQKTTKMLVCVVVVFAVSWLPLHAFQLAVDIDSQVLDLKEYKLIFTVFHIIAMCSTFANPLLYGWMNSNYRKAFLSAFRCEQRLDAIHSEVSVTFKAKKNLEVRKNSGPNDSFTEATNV
Assay Info: Receptor Binding Assay (RBA) for Human Y2, [125I]-PYY displacement on hY2R/CHO membrane fraction
Conditions: IC50 of test compound/IC50 of PYY(3-36) (PYY(3-36) taken as 1)
Non-standard residues stand in square brackets, D forms with d. *: point of attachment. Cha = N[C@@H](CC1CCCCC1)C(=O)O; Isobutyryl = CC(C)C(=O)*; Abu = CC[C@H](N)C(=O)O; Dap = NC[C@H](N)C(=O)O; Aib = CC(C)(N)C(=O)O; Bz = O=C(c1ccccc1)*
Assay Endpoint: RBA IC50 Ratio
Enter the number alone.

Could you share which RBA IC50 Ratio value was measured for Isobutanoyl-[Abu26,27, Cha28,36, Aib31]-PYY(25-36) (Isobutyryl-R[Abu][Abu][Cha]NL[Aib]TRQR[Cha]-NH2; SMILES CC[C@H](NC(=O)[C@H](CCCNC(=N)N)NC(=O)C(C)C)C(=O)N[C@@H](CC)C(=O)N[C@@H](CC1CCCCC1)C(=O)N[C@@H](CC(N)=O)C(=O)N[C@@H](CC(C)C)C(=O)NC(C)(C)C(=O)N[C@H](C(=O)N[C@@H](CCCNC(=N)N)C(=O)N[C@@H](CCC(N)=O)C(=O)N[C@@H](CCCNC(=N)N)C(=O)N[C@@H](CC1CCCCC1)C(N)=O)[C@@H](C)O) [compound No. 94] ?
31

Another substance to check: Benzoyl-[His27, Cha28,36, Aib31]-PYY(25-36) (Bz-RHH[Cha]NL[Aib]TRQR[Cha]-NH2; SMILES CC(C)C[C@H](NC(=O)[C@H](CC(N)=O)NC(=O)[C@H](CC1CCCCC1)NC(=O)[C@H](Cc1c[nH]cn1)NC(=O)[C@H](Cc1c[nH]cn1)NC(=O)[C@H](CCCNC(=N)N)NC(=O)c1ccccc1)C(=O)NC(C)(C)C(=O)N[C@H](C(=O)N[C@@H](CCCNC(=N)N)C(=O)N[C@@H](CCC(N)=O)C(=O)N[C@@H](CCCNC(=N)N)C(=O)N[C@@H](CC1CCCCC1)C(N)=O)[C@@H](C)O) [compound No. 104]
5.6

Continue with Isobutanoyl-[Abu26, Cha27,36, His28, Aib31]-PYY(25-36) (Isobutyryl-R[Abu][Cha]HNL[Aib]TRQR[Cha]-NH2; SMILES CC[C@H](NC(=O)[C@H](CCCNC(=N)N)NC(=O)C(C)C)C(=O)N[C@@H](CC1CCCCC1)C(=O)N[C@@H](Cc1c[nH]cn1)C(=O)N[C@@H](CC(N)=O)C(=O)N[C@@H](CC(C)C)C(=O)NC(C)(C)C(=O)N[C@H](C(=O)N[C@@H](CCCNC(=N)N)C(=O)N[C@@H](CCC(N)=O)C(=O)N[C@@H](CCCNC(=N)N)C(=O)N[C@@H](CC1CCCCC1)C(N)=O)[C@@H](C)O) [compound No. 101]
19

Consider next the substance Benzoyl-[Cha27,36, Ile28, Dap31]-PYY(25-36) (Bz-RH[Cha]INL[Dap]TRQR[Cha]-NH2; SMILES CC[C@H](C)[C@H](NC(=O)[C@H](CC1CCCCC1)NC(=O)[C@H](Cc1c[nH]cn1)NC(=O)[C@H](CCCNC(=N)N)NC(=O)c1ccccc1)C(=O)N[C@@H](CC(N)=O)C(=O)N[C@@H](CC(C)C)C(=O)N[C@@H](CN)C(=O)N[C@H](C(=O)N[C@@H](CCCNC(=N)N)C(=O)N[C@@H](CCC(N)=O)C(=O)N[C@@H](CCCNC(=N)N)C(=O)N[C@@H](CC1CCCCC1)C(N)=O)[C@@H](C)O) [compound No. 69] in the same way.
37

Reference source: patent US9260500B2
